# melting point per entry
Property Measured: melting point

Chem Smiles	Measured
COc1cc(COc2nn(-c3ccccc3)cc2C(=O)O)ccc1OCc1nc(-c2ccco2)oc1C	184 to 185 °C
CCOC(=O)c1ncn2c1[C@@H]1CCCN1C(=O)c1c(Cl)cccc1-2	182 to 184 °C
CC(=O)C1=Nc2cc3c(c(C)c2=C1C)N=c1ccccc1=3	258 to 260 °C

----------
# melting point per entry

Compound	melting point
COC(=O)c1cccc(-c2nc(C(=O)c3ccc(N)c(C(=O)OC)c3)n3ccccc23)c1	203 °C
CCCc1c(OCCCCCc2nnnn2C)ccc(C(C)=O)c1O	72 to 75 °C
COC(=O)C1=C(C)NC(C)=C(C(=O)OCC(C)C)C1c1cccc2nonc12 (stereo unspecified)	148 to 158 °C
Cc1nc(N2CCN(Cc3ccccc3)C2=O)sc1C(=O)NCc1cccc(Cl)c1	178 to 179 °C
O=C(O)c1ccc(C=Cc2ccc(-c3cc4ccccc4o3)cc2)cc1	348 to 349 °C
CC(NC(=S)Nc1ccc(NCCN)nc1)C(C)(C)C (stereo unspecified)	138 to 140 °C
COc1ccc2c(c1)[C@H]1Cc3ccccc3[C@H]1N2 (relative stereo)	101 °C
CC12CCC3C(CCC4=CC(=O)CCC43CO)C1CCC2O (stereo unspecified)	205 to 207 °C
CC(C)(Oc1ccc(CCC(=O)c2ccc(-c3ccc(C(F)(F)F)cc3)s2)cc1)C(=O)O	154 to 155 °C
Cc1ccccc1Nc1c([N+](=O)[O-])cnc2ccccc12	137 to 138 °C
CN(C)S(=O)(=O)c1ccc2c(c1)S(=O)(=O)NC(C1CCCCC1)N2 (stereo unspecified)	243 to 245 °C
CC(=O)NCc1ccn(-c2cc3c(cc2C(F)(F)F)[nH]c(=O)c(=O)n3CC(=O)O)c1	250 to 251 °C
Cc1nccn1-c1nc(NCc2ccccc2)c2ccccc2n1	182 to 186 °C
CC(O)c1cc2c3ccccc3n(C)c(=O)n2n1 (stereo unspecified)	169 to 172 °C
CCCCCCCCC#CCC#CCC#CCCCC(=O)NCC(O)CO (stereo unspecified)	87 °C
O=[N+]([O-])c1ccc(N(CCO)CCO)cc1	102 to 104 °C
